In this section, each of the molecules is paired with its reported growth at 10 µM.
System: SK-MEL-28
Protocol Text: Growth inhibition of human SK-MEL-28 cells assessed as cell growth at 10 uM after 48 hrs by sulforhodamine B assay
Assay type: functional
Condition Details: SK-MEL-28, 48 h, read-out: Activity

>  <Compound>
O=C(Nc1cccc(-n2cc(-c3ccncc3)c(-c3ccc(Cl)c(O)c3)n2)c1)c1ccc(N2CCOCC2)c(C(F)(F)F)c1

>  <growth at 10 µM (%)>
1.14

$$$$
>  <Compound>
O=C(Nc1cccc(-n2cc(-c3ccncc3)c(-c3ccc(Cl)c(O)c3)n2)c1)Nc1ccc(Cl)c(Cl)c1

>  <growth at 10 µM (%)>
24.6

$$$$
>  <Compound>
COc1cc(-c2nn(-c3cccc(NC(=O)c4ccc(N5CCOCC5)c(C(F)(F)F)c4)c3)cc2-c2ccncc2)ccc1Cl

>  <growth at 10 µM (%)>
28.4

$$$$
>  <Compound>
COc1cc(-c2nn(-c3cccc(NC(=O)c4ccc(Br)c(C)c4)c3)cc2-c2ccncc2)ccc1Cl

>  <growth at 10 µM (%)>
80.2

$$$$
>  <Compound>
O=C(Nc1cccc(-n2cc(-c3ccncc3)c(-c3ccc(Cl)c(O)c3)n2)c1)c1ccc(Cl)c(C(F)(F)F)c1

>  <growth at 10 µM (%)>
94.1

$$$$
>  <Compound>
COc1cc(-c2nn(-c3cccc(NC(=O)Nc4ccccc4)c3)cc2-c2ccncc2)ccc1Cl

>  <growth at 10 µM (%)>
86.3

$$$$

----------
In this section, each of the compounds is paired with its reported growth at 3 µM.
Test system: RXF 393
Protocol Text: Growth inhibition of human RXF393 cells assessed as cell growth at 3X10'-6 M after 48 hrs by sulforhodamine B assay
Assay type: functional
Condition Details: RXF 393, 48 h, read-out: Activity

>  <Compound>
O=C(Nc1cccc(-n2cc(-c3ccncc3)c(-c3ccc(Cl)c(O)c3)n2)c1)Nc1cccc(C(F)(F)F)c1

>  <Measured On>
RXF 393

>  <growth at 3 µM>
49%

$$$$
>  <Compound>
O=C(Nc1cccc(-n2cc(-c3ccncc3)c(-c3ccc(Cl)c(O)c3)n2)c1)Nc1ccc(Cl)c(Cl)c1

>  <Measured On>
RXF 393

>  <growth at 3 µM>
16%

$$$$
>  <Compound>
COc1cc(-c2nn(-c3cccc(NC(=O)c4ccc(Cl)c(C(F)(F)F)c4)c3)cc2-c2ccncc2)ccc1Cl

>  <Measured On>
RXF 393

>  <growth at 3 µM>
36%

$$$$
>  <Compound>
O=C(Nc1cccc(-n2cc(-c3ccncc3)c(-c3ccc(Cl)c(O)c3)n2)c1)Nc1ccc(Cl)c(C(F)(F)F)c1

>  <Measured On>
RXF 393

>  <growth at 3 µM>
-28%

$$$$

----------
Tested on: SK-MEL-5
Protocol Text: Growth inhibition of human SK-MEL-5 cells after 48 hrs by sulforhodamine B assay
Assay type: functional
Condition Details: SK-MEL-5, 48 h
Quantity Measured: LC50 (concentration killing 50% of cells) (µM)

>  <Compound>
COc1cc(-c2nn(-c3cccc(NC(=O)c4ccc(Cl)c(C(F)(F)F)c4)c3)cc2-c2ccncc2)ccc1Cl

>  <Measured Result>
31.8

$$$$
>  <Compound>
O=C(Nc1cccc(-n2cc(-c3ccncc3)c(-c3ccc(Cl)c(O)c3)n2)c1)c1ccc(N2CCOCC2)c(C(F)(F)F)c1

>  <Measured Result>
31.8

$$$$
>  <Compound>
O=C(Nc1cccc(-n2cc(-c3ccncc3)c(-c3ccc(Cl)c(O)c3)n2)c1)Nc1cc(C(F)(F)F)cc(C(F)(F)F)c1

>  <Measured Result>
2.62

$$$$
>  <Compound>
O=C(Nc1cccc(-n2cc(-c3ccncc3)c(-c3ccc(Cl)c(O)c3)n2)c1)Nc1cccc(C(F)(F)F)c1

>  <Measured Result>
13.8

$$$$
>  <Compound>
COc1cc(-c2nn(-c3cccc(NC(=O)c4cccc(C(F)(F)F)c4)c3)cc2-c2ccncc2)ccc1Cl

>  <Measured Result>
40.6

$$$$

----------
System: OVCAR-4
Protocol Text: Growth inhibition of human OVCAR4 cells after 48 hrs by sulforhodamine B assay
Format: functional
Condition Details: OVCAR-4, 48 h
In this section, each of the molecules is paired with its reported TGI.

>  <Compound>
COc1cc(-c2nn(-c3cccc(NC(=O)c4ccc(Cl)c(C(F)(F)F)c4)c3)cc2-c2ccncc2)ccc1Cl

>  <Measured On>
OVCAR-4

>  <TGI>
> 32.5 µM

$$$$
>  <Compound>
O=C(Nc1cccc(-n2cc(-c3ccncc3)c(-c3ccc(Cl)c(O)c3)n2)c1)Nc1ccc(Cl)c(Cl)c1

>  <Measured On>
OVCAR-4

>  <TGI>
> 32.5 µM

$$$$
>  <Compound>
COc1cc(-c2nn(-c3cccc(NC(=O)Nc4cc(C(F)(F)F)cc(C(F)(F)F)c4)c3)cc2-c2ccncc2)ccc1Cl

>  <Measured On>
OVCAR-4

>  <TGI>
9.64 µM

$$$$
>  <Compound>
O=C(Nc1cccc(-n2cc(-c3ccncc3)c(-c3ccc(Cl)c(O)c3)n2)c1)Nc1cc(C(F)(F)F)cc(C(F)(F)F)c1

>  <Measured On>
OVCAR-4

>  <TGI>
5.01 µM

$$$$
>  <Compound>
COc1cc(-c2nn(-c3cccc(NC(=O)c4cccc(C(F)(F)F)c4)c3)cc2-c2ccncc2)ccc1Cl

>  <Measured On>
OVCAR-4

>  <TGI>
> 50 µM

$$$$
>  <Compound>
COc1cc(-c2nn(-c3cccc(NC(=O)Nc4cccc(C(F)(F)F)c4)c3)cc2-c2ccncc2)ccc1Cl

>  <Measured On>
OVCAR-4

>  <TGI>
2.1 µM

$$$$
>  <Compound>
COc1cc(-c2nn(-c3cccc(NC(=O)c4ccccc4)c3)cc2-c2ccncc2)ccc1Cl

>  <Measured On>
OVCAR-4

>  <TGI>
> 100 µM

$$$$
>  <Compound>
COc1cc(-c2nn(-c3cccc(NC(=O)c4ccc(N5CCOCC5)c(C(F)(F)F)c4)c3)cc2-c2ccncc2)ccc1Cl

>  <Measured On>
OVCAR-4

>  <TGI>
> 100 µM

$$$$

----------
In this section, each of the molecules is paired with its reported growth at 50 µM.
Tested on: NCI-H226
Protocol Text: Growth inhibition of human NCI-H226 cells assessed as cell growth at 5X10'-5 M after 48 hrs by sulforhodamine B assay
Assay type: functional
Condition Details: NCI-H226, 48 h, read-out: Activity
Quantity Measured: growth at 50 µM (%)

>  <Compound>
COc1cc(-c2nn(-c3cccc(NC(=O)Nc4ccc(Cl)c(Cl)c4)c3)cc2-c2ccncc2)ccc1Cl

>  <Quantity Unit>
%

>  <Measured Result>
4

$$$$
>  <Compound>
COc1cc(-c2nn(-c3cccc(NC(=O)Nc4cccc(C(F)(F)F)c4)c3)cc2-c2ccncc2)ccc1Cl

>  <Quantity Unit>
%

>  <Measured Result>
7

$$$$
>  <Compound>
O=C(Nc1cccc(-n2cc(-c3ccncc3)c(-c3ccc(Cl)c(O)c3)n2)c1)c1ccc(N2CCOCC2)c(C(F)(F)F)c1

>  <Quantity Unit>
%

>  <Measured Result>
58

$$$$
>  <Compound>
COc1cc(-c2nn(-c3cccc(NC(=O)c4cccc(C(F)(F)F)c4)c3)cc2-c2ccncc2)ccc1Cl

>  <Quantity Unit>
%

>  <Measured Result>
-7

$$$$
>  <Compound>
COc1cc(-c2nn(-c3cccc(NC(=O)Nc4cc(C(F)(F)F)cc(C(F)(F)F)c4)c3)cc2-c2ccncc2)ccc1Cl

>  <Quantity Unit>
%

>  <Measured Result>
-4

$$$$

----------
System: SK-MEL-5
Protocol Text: Growth inhibition of human SK-MEL-5 cells assessed as cell growth at 3X10'-5 M after 48 hrs by sulforhodamine B assay
Type: functional
Condition Details: SK-MEL-5, 48 h, read-out: Activity

>  <Compound>
COc1cc(-c2nn(-c3cccc(NC(=O)c4ccc(Cl)c(C(F)(F)F)c4)c3)cc2-c2ccncc2)ccc1Cl

>  <Quantity Unit>
%

>  <growth at 30 µM>
-51

$$$$
>  <Compound>
O=C(Nc1cccc(-n2cc(-c3ccncc3)c(-c3ccc(Cl)c(O)c3)n2)c1)Nc1ccc(Cl)c(C(F)(F)F)c1

>  <Quantity Unit>
%

>  <growth at 30 µM>
-97

$$$$
>  <Compound>
COc1cc(-c2nn(-c3cccc(NC(=O)Nc4ccc(Cl)c(C(F)(F)F)c4)c3)cc2-c2ccncc2)ccc1Cl

>  <Quantity Unit>
%

>  <growth at 30 µM>
-94

$$$$
>  <Compound>
O=C(Nc1cccc(-n2cc(-c3ccncc3)c(-c3ccc(Cl)c(O)c3)n2)c1)Nc1ccc(Cl)c(Cl)c1

>  <Quantity Unit>
%

>  <growth at 30 µM>
-95

$$$$

----------
System: CCRF-CEM
Protocol Text: Growth inhibition of human CCRF-CEM cells assessed as cell growth at 10 uM after 48 hrs by sulforhodamine B assay
Format: functional
Condition Details: read-out: Activity
In this section, each of the compounds is paired with its reported growth at 10 µM.
Quantity Measured: growth at 10 µM (%)

>  <Compound>
COc1cc(-c2nn(-c3cccc(NC(=O)c4ccc(Br)c(C)c4)c3)cc2-c2ccncc2)ccc1Cl

>  <Quantity Measured>
growth at 10 µM

>  <Quantity Unit>
%

>  <Measured Result>
74.6

$$$$
>  <Compound>
O=C(Nc1cccc(-n2cc(-c3ccncc3)c(-c3ccc(Cl)c(O)c3)n2)c1)c1ccccc1

>  <Quantity Measured>
growth at 10 µM

>  <Quantity Unit>
%

>  <Measured Result>
67.5

$$$$
>  <Compound>
COc1cc(-c2nn(-c3cccc(NC(=O)c4ccccc4)c3)cc2-c2ccncc2)ccc1Cl

>  <Quantity Measured>
growth at 10 µM

>  <Quantity Unit>
%

>  <Measured Result>
2.06

$$$$
>  <Compound>
COc1cc(-c2nn(-c3cccc(NC(=O)Nc4ccc(Cl)c(C(F)(F)F)c4)c3)cc2-c2ccncc2)ccc1Cl

>  <Quantity Measured>
growth at 10 µM

>  <Quantity Unit>
%

>  <Measured Result>
-8.04

$$$$
>  <Compound>
COc1cc(-c2nn(-c3cccc(NC(=O)Nc4cccc(C(F)(F)F)c4)c3)cc2-c2ccncc2)ccc1Cl

>  <Quantity Measured>
growth at 10 µM

>  <Quantity Unit>
%

>  <Measured Result>
-9.68

$$$$
>  <Compound>
O=C(Nc1cccc(-n2cc(-c3ccncc3)c(-c3ccc(Cl)c(O)c3)n2)c1)c1ccc(Cl)c(C(F)(F)F)c1

>  <Quantity Measured>
growth at 10 µM

>  <Quantity Unit>
%

>  <Measured Result>
98.8

$$$$
